- protocolDescription: Primary redox qHTS assay for identification of artifact compounds. (AID 1845223);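 note: 0% = DMSO and 100% = reference compound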
- conditions: Amplex Red/HRP redox cycling with DTT, fluorescence; series mostly up to 53.8 µM
- Excerpt: PI: Alexander Tropsha Ph.D. UNC Eshelman School of Pharmacy University of North Carolina, Chapel Hill, North Carolina Hits from high-throughput screening (HTS) of chemical libraries are often false positives due to their interference with the assay detection technology. […] Using these curated datasets, we developed and validated several Quantitative Structure-Interference Relationship (QSIR) models to predict nuisance behavior. […]
Results filed as inconclusive are left out. Calls of active or inactive are those of the source. Calls come from the whole dose curve; as a rule, active = well fitted activation curve with a large enough effect; inconclusive = small, poorly fitted or top-dose-only effect; inactive = flat fitted curve, though single readings scatter.
recordedMetric: redox activity (% of DA3003)

So, CC(C)N(CCCNC(=O)Nc1ccc(C(C)(C)C)cc1)C[C@H]1O[C@@H](n2ccc3c(N)ncnc32)[C@H](O)[C@@H]1O ? Its redox activity (% of DA3003) was inactive

For this compound ( Cc1cn2cc(CC(=O)N3CCC4(CC3)CN(Cc3ccc(-n5nccn5)cc3Cl)C4)nc2s1 ), measured redox activity (% of DA3003) is inactive

Item: COc1ccnc(CCc2nc3ncccc3[nH]2)c1 | redox activity (% of DA3003): inactive

The compound CC(C)CC(=O)O[C@@H]1O[C@H](CO)[C@@H](O[C@H]2O[C@H](C)[C@@H](N[C@H]3C=C(CO)[C@@H](O[C@H]4O[C@H](CO)[C@@H](O[C@H]5O[C@H](CO)[C@@H](O[C@H]6O[C@H](CO)[C@@H](O)[C@H](O)[C@H]6O)[C@H](O)[C@H]5O)[C@H](O)[C@H]4O)[C@H](O)[C@H]3O)[C@H](O)[C@H]2O)[C@H](O)[C@H]1O showed redox activity (% of DA3003) equal to 4.39% [at 11.5 µM] (inactive)
